- Test system: UACC-257 melanoma
- Procedure Text: NCI-60 one-dose screen, 48 h (100 = growth as untreated, 0 = no growth, -100 = all killed)
- Test Parameters: 10 µM unless noted
The panel holds about 83,000 compounds, 20% with a hit somewhere; the sample as a whole holds those more often.
With a cut-off of 80%, any growth strictly below it is called Satisfied; any growth meeting it or above is called Not satisfied.

[
  {
    "Molecule": "COc1ccc(C/C(C)=C(\\c2ccc(Cl)cc2)c2ccc(OCCN3CCCCC3)cc2)cc1",
    "Group Label": "Not satisfied"
  },
  {
    "Molecule": "Nc1ncnc2c1c(-c1cccc(Cl)c1)nn2CC(=O)N1CCOCC1",
    "Group Label": "Not satisfied"
  },
  {
    "Molecule": "Cn1cc(C(=O)c2nc(-c3c[nH]c4ccccc34)no2)c2cc(F)ccc21",
    "Group Label": "Satisfied"
  },
  {
    "Molecule": "C=C1C(=O)O[C@H]2[C@H]1CC/C(COC(=O)C(=O)c1cn(C)c3ccc(Cl)cc13)=C\\CC[C@@]1(C)O[C@@H]21",
    "Group Label": "Satisfied"
  },
  {
    "Molecule": "COc1cc(-c2nccc3[nH]c(-c4ccc5cc[nH]c5c4)nc23)cc(OC)c1OC",
    "Group Label": "Satisfied"
  },
  {
    "Molecule": "COc1ccc2c(c1)c(-c1nc(-c3c[nH]c4ccncc34)cs1)cn2C",
    "Group Label": "Satisfied"
  },
  {
    "Molecule": "COC(=O)/C=C1/SC(=Nc2ccc(C(F)(F)F)cc2)N(CCc2c[nH]c3ccc(O)cc23)C1=O",
    "Group Label": "Satisfied"
  },
  {
    "Molecule": "Clc1ccc(/C=N\\N=C\\c2ccc(Cl)c(Cl)c2)cc1Cl",
    "Group Label": "Not satisfied"
  }
]

Is the reported growth for `O=C(CN1C(=O)S/C(=C\c2ccccc2)C1=O)Nc1ncc(Cc2ccccc2Cl)s1` strictly below 80%?
Not satisfied

Also `O=C1c2ccc3c4c5ccc(c24)C(=O)N1CCCOCCCCOCCCNCc1ccc(cc1)CNCCCOCCCCOCCCN(C3=O)C5=O` , if possible.
Satisfied

Also `COc1ccc(/C=C/C(=O)c2cccc(OCCCCOc3cccc(C(=O)/C=C/c4ccc(OC)c(OC)c4)c3)c2)cc1OC` , if possible.
Satisfied

Also `CCCc1c(OC(=O)c2ccccc2)nc2[nH]c(=O)sc2c1C` , if possible.
Not satisfied

Also Cc1cc(C)c2c(c1)N(C)c1ncnc(-n3cnc4cc(C)ccc43)c1CC2C (stereo not given) , if possible.
Satisfied

Also `CCc1ccc(CCCC(=O)O)cc1` , if possible.
Not satisfied

====

- Test system: OVCAR-5 ovarian
- Procedure Text: NCI-60 one-dose screen, 48 h (100 = growth as untreated, 0 = no growth, -100 = all killed)
- Test Parameters: 10 µM unless noted
About 83,000 compounds went through this panel and 20% of them were active in at least one assay; those are over-represented in the sample as a whole.
Experimental Endpoint: growth (%)
Give the number; % is assumed, so skip it.

The cases that follow already have their growth on record.
[
  {
    "Compound": "CC(=O)O[C@H]1CC2CCC3C(CC[C@@]4(C)C3C[C@H]([N+]3(C)CCCCC3)[C@@H]4OC(C)=O)[C@@]2(C)C[C@@H]1N1CCCCC1 (some centres undefined)",
    "Unit Info": "%",
    "growth": 110
  },
  {
    "Compound": "COC(=O)CC[C@@H]1O[C@@H](c2cccc(C(F)(F)F)c2)[C@@H](O)[C@H]1O",
    "Unit Info": "%",
    "growth": 97.1
  },
  {
    "Compound": "COc1ccc(C2=C(Nc3ccc(C(=O)Nc4ccccc4)cc3)C(=O)N(C)C2=O)cc1",
    "Unit Info": "%",
    "growth": 100
  },
  {
    "Compound": "O=S(=O)(NCCCNc1nccc(-c2c(-c3ccc(F)c(O)c3)nc3occn23)n1)c1ccc(Cl)cc1",
    "Unit Info": "%",
    "growth": 118
  },
  {
    "Compound": "COc1cc2c(cc1OCCCN1CCN(CCCOc3cc4c(cc3OC)C(=O)N3CCC[C@H]3C=N4)CC1)C=CC(C)(C)O2",
    "Unit Info": "%",
    "growth": -80.7
  }
]

Requested field: growth. Item: CC(C)(C)[Si](C)(C)OC1[C@@H](CNC(=O)NC(=O)NC(N)=O)O[C@@H](n2cnc3c(NC(=O)Nc4ccccc4)ncnc32)[C@H]1O[Si](C)(C)C(C)(C)C (some centres undefined)
96.1

====

- System: TK-10 renal
- Procedure Text: NCI-60 one-dose screen, 48 h (100 = growth as untreated, 0 = no growth, -100 = all killed)
- Test Parameters: 10 µM unless noted
The panel holds about 83,000 compounds, 20% with a hit somewhere; the sample as a whole holds those more often.
Experimental Endpoint: growth (%)
Give the number; % is assumed, so skip it.

The cases that follow already have their growth on record.
[
  {
    "Compound": "Cc1[nH]c(=O)[nH]c(=O)c1Br",
    "Unit Info": "%",
    "growth": 114
  },
  {
    "Compound": "O=C(/C=C/c1cccc(Cl)c1)c1ccc(Nc2nc(Nc3ccc(F)cc3)nc(Nc3ccc(Cl)cc3)n2)cc1",
    "Unit Info": "%",
    "growth": 127
  }
]

Requested field: growth. Item: `CCc1ccccc1-n1c(-c2ccc(OC)cc2)cc(-c2ccc(OC)cc2)c(C#N)c1=O`
97.2

Also CC1(C)CC(=O)C2=C(C1)N(c1ccc(OC(F)(F)F)cc1)C(N)=C(C#N)C2c1ccc(Br)cc1F (stereo not given) , if possible.
119

Also `O=C(Nc1ccc(OS(=O)(=O)c2ccc(F)cc2)cc1)C1CCCCCC1` , if possible.
107

Also `Cc1cn(-c2cc(NC(=O)c3cncc(C#Cc4cnc(N)c5ncccc45)c3)cc(C(F)(F)F)c2)cn1` , if possible.
90.3

Also `Cn1c(I)c(C#CCO[Si](C)(C)C(C)(C)C)c(=O)[nH]c1=O` , if possible.
92.7

Also `O=C(Nc1cccc(-c2ccc(Cl)c(C(F)(F)F)c2)c1)C1CCN(Cc2cccc3cccnc23)CC1` , if possible.
80.6

Also `Oc1c(Br)cc(Br)c2ccc(Cn3cc(-c4ccccc4C(F)(F)F)nn3)nc12` , if possible.
134

Also `COc1c(B(O)O)cccc1-c1nc2c(F)cc3[nH]ncc3c2c2c1CCCC2` , if possible.
16.2

====

# growth per entry
- Test system: NCI-H23 lung
- Procedure Text: NCI-60 one-dose screen, 48 h (100 = growth as untreated, 0 = no growth, -100 = all killed)
- Test Parameters: 10 µM unless noted
Compounds without any hit were thinned out: in the full panel of roughly 83,000, 20% have a hit.
Give the number; % is assumed, so skip it.

The cases that follow already have their growth on record.
[
  {
    "Compound": "O=S(=O)(NCCCNc1nccc(-c2c(-c3ccc(F)c(O)c3)nc3sccn23)n1)c1ccccc1",
    "Experimental Endpoint": "growth",
    "Unit Info": "%",
    "Reported Value": 58.3
  },
  {
    "Compound": "COCCn1cc(-c2nc(-c3cc4cccnc4[nH]3)cs2)c2cc(OC)ccc21",
    "Experimental Endpoint": "growth",
    "Unit Info": "%",
    "Reported Value": 8.67
  }
]

Requested field: growth. Item: `CS(=O)(=O)c1ccc(-c2cnn3ccc(-c4cccc(S(=O)(=O)C5CC5)c4)nc23)cc1`
56.8

Also `COc1ccc(-c2cc(-c3ccc(Cl)cc3)c(C#N)c(=O)n2Cc2ccc(C(=O)Nc3ccccc3N)cc2)cc1` , if possible.
77.2

Also `COc1ccc(C/C(C)=C(\c2ccc(Cl)cc2)c2ccc(OCCN3CCCCC3)cc2)cc1` , if possible.
91.9

Also `COc1ccc(OC)c(Nc2nnc(-c3ccc(O)c(OC)c3)o2)c1` , if possible.
70.7

Also CC(C)=CCCC(C)c1ccc(C)c2c1OCN(CCCCCO)C2 (configuration not stated) , if possible.
91.3

Also `Cn1c(=O)c2nc(/C=C/c3ccccc3)c(=O)[nH]c2n(C)c1=S` , if possible.
100

Also `O=C(Nc1cccc(-c2ccc(Cl)c(C(F)(F)F)c2)c1)C1CCN(Cc2cccc3cccnc23)CC1` , if possible.
48.2

Also `CCOC(=O)n1cc(-c2nonc2-c2cn(C(=O)OCC)c3ccc(Br)cc23)c2ccccc21` , if possible.
67.9

Also `O=C(O)c1cn(C2CC2)c2cc(N3CCN(Cc4ccc5ccccc5c4O)CC3)c(F)cc2c1=O` , if possible.
26.4

Also `CN(C)S(=O)(=O)c1cccc(C(=O)Nc2nc(-c3ccc(F)c(F)c3)cs2)c1` , if possible.
45.7

Also `O=C(N/N=C/c1ccc(Cl)cc1)c1[nH]c2ccc(Cl)cc2c1-c1ccccc1` , if possible.
42.1

Also `Cc1ccc(C(=O)c2ccc(CC(=O)N/N=C/c3ccccc3O)n2C)cc1` , if possible.
82.9

Also `COc1ccc(-c2ccc(-c3ccc(C(=N)N)cc3)s2)cc1Cl` , if possible.
61.4

Also `Cc1ccc2c(c1)=C/C(=C\c1cc(-c3ccccc3)oc1O)C(=O)N=2` , if possible.
95.3

Also `CC1CCN(CCOc2ccc(CNc3ccc4nc(CCC5CCCCC5)[nH]c4c3)cc2)CC1` , if possible.
71.7

Also `O=C(Nc1cccc(Cl)c1)Nc1cccc(Cn2c(=O)[nH]c3ccc(Oc4ncccn4)cc3c2=O)c1` , if possible.
33.1
